Origin of values: the supplement of paper PMC4380931

# System: MMACSF
# Assay Remarks: apoptotic fraction of cells (caspase-3 NucView488 positive); higher = more apoptosis
# Study Conditions: 24 h; 1 µM
Measurement Kind: apoptotic fraction of cells

> print(dat)
                                  structure  study.target             measurement.kind  recorded.measurement
1  CCCS(=O)(=O)Nc1ccc(F)c(C(=O)c2c[nH]c3ncc(-c4ccc(Cl)cc4)cc23)c1F        MMACSF  apoptotic fraction of cells                0.0484
2  Cc1ccc(NC(=O)c2cccc(C(C)(C)C#N)c2)cc1Nc1ccc2ncn(C)c(=O)c2c1        MMACSF  apoptotic fraction of cells                0.0524
3  CN(C)CCOc1ccc(-c2nc(-c3ccncc3)c(-c3ccc4c(c3)CC/C4=N\O)[nH]2)cc1        MMACSF  apoptotic fraction of cells                 0.048
4  Cn1cnc2c(F)c(Nc3ccc(Br)cc3Cl)c(C(=O)NOCCO)cc21        MMACSF  apoptotic fraction of cells                0.0569
5  CCCS(=O)(=O)Nc1ccc(F)c(C(=O)c2c[nH]c3ncc(Cl)cc23)c1F        MMACSF  apoptotic fraction of cells                0.0492
